B1: 3'-5' exoribonuclease 1, residues 65 to 114; numbered along this chain, Q8IV48 (parent)
chain: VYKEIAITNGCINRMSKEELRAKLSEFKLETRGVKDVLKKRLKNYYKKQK

Variants of: B1
METHOD_NOTES: abundance fitness (aPCA) (normalised: wild type 0, dead -1); higher = more abundant; growth selection in yeast, the domain comes from the species named
MEASUREMENT_SETUP: Homo sapiens
RECORDED_ENDPOINT: abundance fitness

>>> endpoint_result("K35M")
-0.765
>>> endpoint_result("E4Y")
-0.164
>>> endpoint_result("V34H")
0.054
>>> endpoint_result("K40P")
-0.951
>>> endpoint_result("I5A")
0.007
>>> endpoint_result("E4I")
-0.287
>>> endpoint_result("I5K")
-0.042
>>> endpoint_result("T31M")
-0.285
>>> endpoint_result("E26N")
-0.273
>>> endpoint_result("R41E")
-1.02
>>> endpoint_result("T31Y")
0.121
>>> endpoint_result("C11H")
-0.048
